B1: POU domain, class 3, transcription factor 2, residues 356 to 411; numbered along this chain, P20265 (parent)
chain: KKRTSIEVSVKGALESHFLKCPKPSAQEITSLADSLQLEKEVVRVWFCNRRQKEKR

- Variants of: B1
- ASSAY_COMMENT: abundance fitness (aPCA) (normalised: wild type 0, dead -1); higher = more abundant; growth selection in yeast, the domain comes from the species named
- ASSAY_CONTEXT: Homo sapiens
Respond with true (1) for abundance fitness values of -0.3 and above, false (0) for values below.

[
  {
    "VARIANT_IDENTIFIER": "T4M",
    "ANSWER_LABEL": "true (1)"
  },
  {
    "VARIANT_IDENTIFIER": "R50F",
    "ANSWER_LABEL": "false (0)"
  },
  {
    "VARIANT_IDENTIFIER": "S16T",
    "ANSWER_LABEL": "true (1)"
  },
  {
    "VARIANT_IDENTIFIER": "S9F",
    "ANSWER_LABEL": "false (0)"
  },
  {
    "VARIANT_IDENTIFIER": "I29H",
    "ANSWER_LABEL": "false (0)"
  },
  {
    "VARIANT_IDENTIFIER": "L14I",
    "ANSWER_LABEL": "false (0)"
  },
  {
    "VARIANT_IDENTIFIER": "K55C",
    "ANSWER_LABEL": "false (0)"
  },
  {
    "VARIANT_IDENTIFIER": "L36M",
    "ANSWER_LABEL": "false (0)"
  },
  {
    "VARIANT_IDENTIFIER": "F18M",
    "ANSWER_LABEL": "false (0)"
  },
  {
    "VARIANT_IDENTIFIER": "K1S",
    "ANSWER_LABEL": "true (1)"
  },
  {
    "VARIANT_IDENTIFIER": "S16R",
    "ANSWER_LABEL": "true (1)"
  },
  {
    "VARIANT_IDENTIFIER": "D34G",
    "ANSWER_LABEL": "true (1)"
  },
  {
    "VARIANT_IDENTIFIER": "H17N",
    "ANSWER_LABEL": "true (1)"
  },
  {
    "VARIANT_IDENTIFIER": "S35Y",
    "ANSWER_LABEL": "true (1)"
  },
  {
    "VARIANT_IDENTIFIER": "C21N",
    "ANSWER_LABEL": "true (1)"
  },
  {
    "VARIANT_IDENTIFIER": "R44D",
    "ANSWER_LABEL": "true (1)"
  },
  {
    "VARIANT_IDENTIFIER": "T30Y",
    "ANSWER_LABEL": "true (1)"
  },
  {
    "VARIANT_IDENTIFIER": "Q37F",
    "ANSWER_LABEL": "true (1)"
  },
  {
    "VARIANT_IDENTIFIER": "W46P",
    "ANSWER_LABEL": "false (0)"
  },
  {
    "VARIANT_IDENTIFIER": "K2I",
    "ANSWER_LABEL": "true (1)"
  },
  {
    "VARIANT_IDENTIFIER": "L38D",
    "ANSWER_LABEL": "false (0)"
  },
  {
    "VARIANT_IDENTIFIER": "D34A",
    "ANSWER_LABEL": "true (1)"
  },
  {
    "VARIANT_IDENTIFIER": "H17E",
    "ANSWER_LABEL": "true (1)"
  },
  {
    "VARIANT_IDENTIFIER": "S9Q",
    "ANSWER_LABEL": "true (1)"
  },
  {
    "VARIANT_IDENTIFIER": "H17Q",
    "ANSWER_LABEL": "true (1)"
  },
  {
    "VARIANT_IDENTIFIER": "Q52T",
    "ANSWER_LABEL": "true (1)"
  },
  {
    "VARIANT_IDENTIFIER": "R56N",
    "ANSWER_LABEL": "true (1)"
  },
  {
    "VARIANT_IDENTIFIER": "V42R",
    "ANSWER_LABEL": "false (0)"
  },
  {
    "VARIANT_IDENTIFIER": "E54A",
    "ANSWER_LABEL": "true (1)"
  },
  {
    "VARIANT_IDENTIFIER": "V8D",
    "ANSWER_LABEL": "true (1)"
  },
  {
    "VARIANT_IDENTIFIER": "K1M",
    "ANSWER_LABEL": "true (1)"
  },
  {
    "VARIANT_IDENTIFIER": "E54S",
    "ANSWER_LABEL": "false (0)"
  },
  {
    "VARIANT_IDENTIFIER": "I29E",
    "ANSWER_LABEL": "false (0)"
  },
  {
    "VARIANT_IDENTIFIER": "F47P",
    "ANSWER_LABEL": "false (0)"
  },
  {
    "VARIANT_IDENTIFIER": "A13V",
    "ANSWER_LABEL": "true (1)"
  },
  {
    "VARIANT_IDENTIFIER": "S25Y",
    "ANSWER_LABEL": "false (0)"
  },
  {
    "VARIANT_IDENTIFIER": "K55Y",
    "ANSWER_LABEL": "true (1)"
  },
  {
    "VARIANT_IDENTIFIER": "V10F",
    "ANSWER_LABEL": "false (0)"
  },
  {
    "VARIANT_IDENTIFIER": "T4I",
    "ANSWER_LABEL": "true (1)"
  },
  {
    "VARIANT_IDENTIFIER": "W46L",
    "ANSWER_LABEL": "false (0)"
  },
  {
    "VARIANT_IDENTIFIER": "L14V",
    "ANSWER_LABEL": "false (0)"
  },
  {
    "VARIANT_IDENTIFIER": "I29N",
    "ANSWER_LABEL": "false (0)"
  },
  {
    "VARIANT_IDENTIFIER": "V43T",
    "ANSWER_LABEL": "false (0)"
  },
  {
    "VARIANT_IDENTIFIER": "E15C",
    "ANSWER_LABEL": "false (0)"
  },
  {
    "VARIANT_IDENTIFIER": "K1N",
    "ANSWER_LABEL": "true (1)"
  },
  {
    "VARIANT_IDENTIFIER": "V45M",
    "ANSWER_LABEL": "true (1)"
  }
]
